CC50: recorded values
System: 786-0
Assay: Antitumor activity against human 786-0 cells
Format: functional
Conditions: read-out: Log LC50 (the source's name) (converted)
Use µM as the unit, but write only the number.

For orientation, consider the following solved cases.
structure_smiles_string=O=C1C(NCCc2ccc3c(c2)OCO3)=CC2=NCCc3c[nH]c1c32 measured_target=786-0 property_name=CC50 measurement=53.7
structure_smiles_string=O=C1C(NCc2ccc(F)cc2)=CC2=NCCc3c[nH]c1c32 measured_target=786-0 property_name=CC50 measurement=53.7

Enquiry: Lab note: need CC50 for COc1ccc(CCNC2=CC3=NCCc4c[nH]c(c43)C2=O)cc1OC on 786-0, anyone have it?
Return: 81.3

----------
Tested on: SK-OV-3
Experiment: Antitumor activity against human SK-OV3 cells
Format: functional
Conditions: read-out: Log LC50 (the source's name) (converted)
# key: entry, value: CC50
Number only, in µM; omit the unit.

structure_smiles_string=O=C1C(NCc2ccc(F)cc2)=CC2=NCCc3c[nH]c1c32 measured_target=SK-OV-3 property_name=CC50 unit_symbol=µM measurement=38.9

Switching to the query record.
Enquiry: Quick check: CC50 on SK-OV-3, item O=C1C(NCc2ccccc2)=CC2=NCCc3c[nH]c1c32 ?
Return: 52.5

----------
Test: Antitumor activity against human OVACR5 cells
Type: functional
Each item that follows carries a reported LC50.
Give the value, in units of µM, as a plain number.

structure_smiles_string=COc1ccc(CCNC2=CC3=NCCc4c[nH]c(c43)C2=O)cc1OC unit_symbol=µM measurement=53.7
structure_smiles_string=O=C1C(NCc2ccc(F)cc2)=CC2=NCCc3c[nH]c1c32 unit_symbol=µM measurement=11.7

Please find the next compound below.
Enquiry: Could you share which LC50 value was measured for O=C1C(NCc2ccccc2)=CC2=NCCc3c[nH]c1c32 ?
Return: 25.7

----------
As shown below, each of these compounds has a reported LC50 value.
Test system: LOX IMVI
Assay: Antitumor activity against human LOX IMVI cells
Type: functional
Give the value in µM but do not write µM after it.

structure_smiles_string=O=C1C(NCCc2ccc3c(c2)OCO3)=CC2=NCCc3c[nH]c1c32 unit_symbol=µM measurement=22.9
structure_smiles_string=O=C1C(NCc2ccc(F)cc2)=CC2=NCCc3c[nH]c1c32 unit_symbol=µM measurement=9.55
structure_smiles_string=O=C1C(NCc2ccccc2)=CC2=NCCc3c[nH]c1c32 unit_symbol=µM measurement=14.5

Enquiry: Tell me the measured LC50 of COc1ccc(CCNC2=CC3=NCCc4c[nH]c(c43)C2=O)cc1OC , please.
Return: 26.3

----------
Overview of reported CC50 across a group of compounds:
Test system: NCI-H322M
Assay: Antitumor activity against human NCI-H322M cells
Assay type: functional
Settings: read-out: Log LC50 (the source's name) (converted)
Output spec: scalar in µM, unitless text.

Enquiry: Give its CC50 value. Item: O=C1C(NCCc2ccc3c(c2)OCO3)=CC2=NCCc3c[nH]c1c32
Return: 36.3

Enquiry: I would be grateful if you could share the reported CC50 for O=C1C(NCc2ccc(F)cc2)=CC2=NCCc3c[nH]c1c32 .
Return: 9.55

Enquiry: Given O=C1C(NCc2ccccc2)=CC2=NCCc3c[nH]c1c32 , state its recorded CC50.
Return: 28.8

Enquiry: Name the reported CC50 value associated with the compound COc1ccc(CCNC2=CC3=NCCc4c[nH]c(c43)C2=O)cc1OC
Return: 49
